This section presents compounds with their documented % degradation of peptidomimetics in 24 h when incubated with simulated gastric fluid values.
Assay: Stability in simulated gastric fluid
Assay type: in vitro ADME
Conditions: 2 μM peptidomimetic, simulated gastric fluid pH 1.5, 37° C., 24 h
Experimental: Reactions were terminated by the addition of TFA/H2O (15 mL, 10% (v/v)). […] The column was equilibrated with TFA/H20, at a flow rate of 1 mL/min.
Non-standard residues stand in square brackets, D forms with d. Residues, ends and D or L forms follow the SMILES beside them. ξ: configuration not given here. ξBip(2'-Et-4'-OMe) = CCc1cc(OC)ccc1-c1ccc(CC(N)C(=O)O)cc1; ξNva(5-(4-Cl-2-MePh)) = Cc1cc(Cl)ccc1CCCC(N)C(=O)O
Numeric answer only, unit % assumed.

- Compound: "CCc1cc(OC)ccc1-c1ccc(CC(NC(=O)[C@H](CC(=O)O)NC(=O)[C@H](CO)NC(=O)[C@@H](NC(=O)[C@H](Cc2ccccc2)NC(=O)[C@@H](NC(=O)CNC(=O)[C@H](CCC(N)=O)NC(=O)[C@H](CO)NC(=O)[C@@H](N)Cc2c[nH]cn2)[C@@H](C)O)[C@@H](C)O)C(=O)NC(CCCc2ccc(Cl)cc2C)C(N)=O)cc1 (stereo partly drawn) [compound 8] (H-HSQGTFTSD[ξBip(2'-Et-4'-OMe)][ξNva(5-(4-Cl-2-MePh))]-NH2)"
  Value: "00"
- Compound: "CCc1cc(OC)ccc1-c1ccc(CC(NC(=O)[C@H](CC(=O)O)NC(=O)[C@H](CO)NC(=O)[C@@H](NC(=O)[C@H](Cc2ccccc2)NC(=O)[C@@H](NC(=O)CNC(=O)[C@H](CCC(N)=O)NC(=O)C(C)(C)NC(=O)[C@@H](N)Cc2c[nH]cn2)[C@@H](C)O)[C@@H](C)O)C(=O)NC(CCCc2ccc(OC)cc2Cl)C(N)=O)cc1 (single isomer, unassigned)"
  Value: 12

// next entry
Recorded result, CCc1cc(OC)ccc1-c1ccc(CC(NC(=S)[C@H](CC(=O)O)NC(=O)[C@H](CO)NC(=O)[C@@H](NC(=O)C(C)(Cc2ccccc2F)NC(=O)[C@@H](NC(=O)CNC(=O)C(CCC#N)NC(=O)C(C)(C)NC(=O)[C@@H](N)Cc2c[nH]cn2)[C@H](C)O)[C@H](C)O)C(=S)NC(CCCc2ccccc2F)C(N)=O)cc1 (single isomer, unassigned) , % degradation of peptidomimetics in 24 h when incubated with simulated gastric fluid: 50

====

Experiment: Stability in human plasma
Assay type: in vitro ADME
Conditions: 2 μM peptidomimetic, pooled human plasma, 37° C., 24 h
Experimental Readout: % degradation of peptidomimetics in 24 h when incubated with human plasma

// known answers, use as guide
- Compound: "CCc1cc(OC)ccc1-c1ccc(CC(NC(=O)[C@H](CC(=O)O)NC(=O)[C@H](CO)NC(=O)[C@@H](NC(=O)[C@H](Cc2ccccc2)NC(=O)[C@@H](NC(=O)CNC(=O)[C@H](CCC(N)=O)NC(=O)C(C)(C)NC(=O)[C@@H](N)Cc2c[nH]cn2)[C@@H](C)O)[C@@H](C)O)C(=O)NC(CCCc2cccc(Cl)c2)C(N)=O)cc1 (single isomer, unassigned)"
  Value: "70%"
- Compound: "CCc1cc(OC)ccc1-c1ccc(CC(NC(=O)[C@H](CC(=O)O)NC(=O)[C@H](CO)NC(=O)[C@@H](NC(=O)C(C)(Cc2ccccc2F)NC(=O)[C@@H](NC(=O)CNC(=O)[C@H](CC(C(F)(F)F)C(F)(F)F)NC(=O)C(C)(C)NC(=O)[C@H](Cc2c[nH]cn2)NC(C)=O)[C@@H](C)O)[C@@H](C)O)C(=O)NC(CCCc2ccccc2)C(N)=O)cc1 (single isomer, unassigned)"
  Value: "77%"

// next entry
Recorded result, CCc1cc(OC)ccc1-c1ccc(CC(C(=O)N(C)C(CCCc2ccccc2F)C(N)=O)N(C)C(=O)[C@H](CC(=O)O)N(C)C(=O)[C@H](CO)NC(=O)[C@@H](NC(=O)C(C)(Cc2ccccc2F)NC(=O)[C@@H](NC(=O)CNC(=O)C(CCC#N)NC(=O)C(C)(C)NC(=O)[C@@H](N)Cc2c[nH]cn2)[C@H](C)O)[C@H](C)O)cc1 (single isomer, unassigned) , % degradation of peptidomimetics in 24 h when incubated with human plasma: 71%

====

Assay: Stability in simulated intestinal fluid
Type: in vitro ADME
Settings: 2 μM peptidomimetic, simulated intestinal fluid pH 7.5, 37° C., 24 h
Experimental Readout: % degradation of peptidomimetics in 24 h when incubated with simulated intestinal fluid

- Compound: "CCc1cc(OC)ccc1-c1ccc(CC(NC(=O)[C@H](CC(=O)O)NC(=O)[C@H](CO)NC(=O)[C@@H](NC(=O)C(C)(Cc2ccccc2F)NC(=O)[C@@H](NC(=O)CNC(=O)C(CCC#N)NC(=O)C(C)(C)NC(=O)[C@@H](N)Cc2c[nH]cn2)[C@H](C)O)[C@H](C)O)C(=O)NC(CCCc2ccccc2)C(N)=O)cc1 (single isomer, unassigned) [compound 114]"
  Value: "00%"

Recorded result, CCc1cc(OC)ccc1-c1ccc(CC(NC(=O)[C@H](CC(=O)O)NC(=O)[C@H](CO)NC(=O)[C@@H](NC(=O)[C@H](Cc2ccccc2)NC(=O)[C@@H](NC(=O)CNC(=O)[C@H](CCC(N)=O)NC(=O)C(C)(C)NC(=O)[C@@H](N)Cc2c[nH]cn2)[C@@H](C)O)[C@@H](C)O)C(=O)NC(CCCc2cccc(Cl)c2)C(N)=O)cc1 (single isomer, unassigned) [compound 19] , % degradation of peptidomimetics in 24 h when incubated with simulated intestinal fluid: 41%

====

Assay: Stability in human plasma
Assay type: in vitro ADME
Details: pH 7.8; 2 μM peptidomimetic, pooled human plasma, 37° C.; read-out: half-life (t1/2) when incubated with human plasma
Procedure: Reactions were terminated by the addition of TFA/H2O (15 mL, 10% (v/v)). […] The column was equilibrated with TFA/H20, at a flow rate of 1 mL/min.
Non-standard residues stand in square brackets, D forms with d. Residues, ends and D or L forms follow the SMILES beside them. ξ: configuration not given here. Leu(5,5,5,5',5',5'-F6) = N[C@@H](CC(C(F)(F)F)C(F)(F)F)C(=O)O; ξBip(2'-Et-4'-OMe) = CCc1cc(OC)ccc1-c1ccc(CC(N)C(=O)O)cc1; ξNva(5-(3-Cl-Ph)) = NC(CCCc1cccc(Cl)c1)C(=O)O; ξαMePhe(2-F) = CC(N)(Cc1ccccc1F)C(=O)O; Aib = CC(C)(N)C(=O)O
This section presents compounds with their documented half-life at 2 μM values.

- Compound: "CCc1cc(OC)ccc1-c1ccc(CC(CNC(CCCc2ccccc2F)C(N)=O)NC[C@H](CC(=O)O)NC(=O)[C@H](CO)NC(=O)[C@@H](NC(=O)C(C)(Cc2ccccc2F)NC(=O)[C@@H](NC(=O)CNC(=O)[C@H](CCC(N)=O)NC(=O)C(C)(C)NC(=O)[C@H](Cc2c[nH]cn2)NC(=O)OC)[C@H](C)O)[C@H](C)O)cc1 (single isomer, unassigned)"
  Value: "> 24 h"

// next entry
Recorded result, CCc1cc(OC)ccc1-c1ccc(CC(NC(=O)[C@H](CC(=O)O)NC(=O)[C@H](CO)NC(=O)[C@@H](NC(=O)C(C)(Cc2ccccc2F)NC(=O)[C@@H](NC(=O)CNC(=O)[C@H](CC(C(F)(F)F)C(F)(F)F)NC(=O)C(C)(C)NC(=O)[C@@H](N)Cc2c[nH]cn2)[C@@H](C)O)[C@@H](C)O)C(=O)NC(CCCc2cccc(Cl)c2)C(N)=O)cc1 (some centres unmarked) [compound 236] (H-H[Aib][Leu(5,5,5,5',5',5'-F6)]GT[ξαMePhe(2-F)]TSD[ξBip(2'-Et-4'-OMe)][ξNva(5-(3-Cl-Ph))]-NH2) , half-life at 2 μM: > 24 h

====

Experiment: Stability in simulated intestinal fluid
Format: in vitro ADME
Conditions: 2 μM peptidomimetic, simulated intestinal fluid pH 7.5, 37° C.; read-out: half-life (t1/2) when incubated with simulated intestinal fluid
Non-standard residues stand in square brackets, D forms with d. Residues, ends and D or L forms follow the SMILES beside them. ξ: configuration not given here. Leu(5,5,5,5',5',5'-F6) = N[C@@H](CC(C(F)(F)F)C(F)(F)F)C(=O)O; ξBip(2'-Et-4'-OMe) = CCc1cc(OC)ccc1-c1ccc(CC(N)C(=O)O)cc1; ξbishPhe(2-F) = NC(CCCc1ccccc1F)C(=O)O; ξαMePhe(2-F) = CC(N)(Cc1ccccc1F)C(=O)O; Aib = CC(C)(N)C(=O)O
This section presents molecules with their documented half-life at 2 μM values.
Numeric answer only, unit min assumed.

- Molecule: "CCc1cc(OC)ccc1-c1ccc(CC(NC(=O)[C@H](CC(=O)O)NC(=O)[C@H](CO)NC(=O)[C@@H](NC(=O)C(C)(Cc2ccccc2F)NC(=O)[C@@H](NC(=O)CNC(=O)[C@H](CC(C(F)(F)F)C(F)(F)F)NC(=O)C(C)(C)NC(=O)[C@H](Cc2c[nH]cn2)NC(C)=O)[C@@H](C)O)[C@@H](C)O)C(=O)NC(CCCc2ccccc2F)C(N)=O)cc1 (some centres unmarked) [compound 212] (Ac-H[Aib][Leu(5,5,5,5',5',5'-F6)]GT[ξαMePhe(2-F)]TSD[ξBip(2'-Et-4'-OMe)][ξbishPhe(2-F)]-NH2)"
  Value: 30

Recorded result, CCc1cc(OC)ccc1-c1ccc(CC(NC(=O)[C@H](CC(=O)O)NC(=O)[C@H](CO)NC(=O)[C@@H](NC(=O)C(C)(Cc2ccccc2F)NC(=O)[C@@H](NC(=O)CNC(=O)C(CCC#N)NC(=O)C(C)(C)NC(=O)[C@H](Cc2c[nH]cn2)NC(=O)OC)[C@@H](C)O)[C@@H](C)O)C(=O)NC(CCCc2ccccc2F)C(N)=O)cc1 (single isomer, unassigned) [compound 208] , half-life at 2 μM: 30
